IC50 values, listed per item
biological target: CDK2 (UniProt P24941); test: Enzyme Assay
Readout Name: IC50

INSERT INTO assay_data (compound, readout_name, test_result) VALUES
  ('CN1CCC(NC(=O)Nc2c[nH]nc2C(=O)N[C@H]2CC[C@H](O)CC2)CC1', 'IC50', '< 20 µM'),
  ('CC(C)(C)N1CCC(NC(=O)c2n[nH]cc2NC(=O)c2c(F)cccc2F)CC1', 'IC50', '< 20 µM'),
  ('NC[C@H]1CC[C@H](NC(=O)c2n[nH]cc2NC(=O)c2c(F)cccc2F)CC1', 'IC50', '< 20 µM'),
  ('O=C(Nc1c[nH]nc1C(=O)N[C@H]1CC[C@H](O)CC1)Nc1c(F)cccc1F', 'IC50', '< 20 µM'),
  ('Cc1ccc(C(=O)Nc2c[nH]nc2C(=O)NC2CCN(C)CC2)cc1', 'IC50', '< 20 µM'),
  ('CN1CCC(NC(=O)c2n[nH]cc2NC(=O)c2cccc3c2OCCO3)CC1', 'IC50', '< 20 µM'),
  ('O=C(N[C@H]1CC[C@H](O)CC1)c1n[nH]cc1NC(=O)N1CCOCC1', 'IC50', '< 750 µM'),
  ('COCCN1CCC(NC(=O)c2n[nH]cc2NC(=O)c2c(F)cccc2F)CC1', 'IC50', '< 20 µM'),
  ('O=C(NC1CCN(CC2CCOC2)CC1)c1n[nH]cc1NC(=O)c1c(F)cccc1F (stereo not given)', 'IC50', '< 20 µM'),
  ('Cc1cc(CNC(=O)c2n[nH]cc2NC(=O)c2c(F)cccc2F)no1', 'IC50', '< 20 µM'),
  ('COCCN1CCC(NC(=O)c2n[nH]cc2NC(=O)c2c(Cl)cccc2Cl)CC1', 'IC50', '< 20 µM'),
  ('O=C(NC1CCN(CC2CC2)CC1)c1n[nH]cc1NC(=O)c1c(F)cccc1F', 'IC50', '< 20 µM'),
  ('CN1CCN([C@H]2CC[C@H](NC(=O)c3n[nH]cc3NC(=O)c3c(F)cccc3F)CC2)CC1', 'IC50', '< 20 µM'),
  ('CCOc1ccccc1C(=O)Nc1c[nH]nc1C(=O)NC1CCNCC1', 'IC50', '< 20 µM'),
  ('CO[C@H]1CC[C@H](NC(=O)c2n[nH]cc2NC(=O)c2c(F)cccc2F)CC1', 'IC50', '< 20 µM'),
  ('CC1CCC(NC(=O)c2n[nH]cc2NC(=O)c2c(F)cccc2F)CC1 (stereo not given)', 'IC50', '< 20 µM'),
  ('O=C(Nc1c[nH]nc1C(=O)NC1CCNCC1)c1ccc(F)cc1', 'IC50', '< 750 µM'),
  ('CC(NC(=O)c1n[nH]cc1NC(=O)c1c(F)cccc1F)c1ccccc1 (stereo not given)', 'IC50', '< 20 µM'),
  ('O=C(Nc1c[nH]nc1C(=O)NC1CCNCC1)c1ccccc1', 'IC50', '< 750 µM'),
  ('CN(C)[C@H]1CC[C@H](NC(=O)c2n[nH]cc2NC(=O)c2c(F)cccc2F)CC1', 'IC50', '< 20 µM'),
  ('O=C(N[C@H]1CCCNC1)c1n[nH]cc1NC(=O)c1c(F)cccc1F', 'IC50', '< 20 µM'),
  ('CC(C)(C)OC(=O)N1CCC(NC(=O)c2n[nH]cc2NC(=O)c2c(F)cc(F)cc2F)CC1', 'IC50', '< 20 µM'),
  ('COc1ccccc1C(=O)Nc1c[nH]nc1C(=O)N[C@H]1CC[C@H](O)CC1', 'IC50', '< 20 µM'),
  ('O=C(Nc1c[nH]nc1C(=O)NCC1CC1)c1ccc(N2CCOCC2)cc1Cl', 'IC50', '< 20 µM'),
  ('O=C(N[C@@H]1CCNC1)c1n[nH]cc1NC(=O)c1c(F)cccc1F', 'IC50', '< 20 µM'),
  ('CC(C)(C)C1CCC(NC(=O)c2n[nH]cc2NC(=O)c2ccc(OC(F)F)cc2)CC1 (stereo not given)', 'IC50', '< 750 µM'),
  ('COc1ccccc1CNC(=O)c1n[nH]cc1NC(=O)c1c(F)cccc1F', 'IC50', '< 20 µM'),
  ('COc1cccc(F)c1C(=O)Nc1c[nH]nc1C(=O)NC1CCNCC1', 'IC50', '< 20 µM'),
  ('CC(C)(C)C1CCC(NC(=O)c2n[nH]cc2NC(=O)c2cc(F)cc(F)c2)CC1 (stereo not given)', 'IC50', '< 750 µM'),
  ('O=C(NC1CCC(N2CCSCC2)CC1)c1n[nH]cc1NC(=O)c1c(F)cccc1F (stereo not given)', 'IC50', '< 20 µM'),
  ('CN1CCC(NC(=O)c2n[nH]cc2NC(=O)c2cccc(Cl)c2Cl)CC1', 'IC50', '< 20 µM'),
  ('O=C(NCC1CCCO1)c1n[nH]cc1NC(=O)c1c(F)cccc1F (stereo not given)', 'IC50', '< 20 µM'),
  ('CN1CCN([C@H]2CC[C@@H](NC(=O)c3n[nH]cc3NC(=O)c3c(F)cccc3F)CC2)CC1', 'IC50', '< 20 µM'),
  ('CC(C)(C)C1CCC(NC(=O)c2n[nH]cc2NC(=O)c2ccc(CN3CCOCC3)o2)CC1 (stereo not given)', 'IC50', '< 20 µM'),
  ('O=C(N[C@H]1CC[C@H](N2CCOCC2)CC1)c1n[nH]cc1NC(=O)c1c(F)cccc1F', 'IC50', '< 20 µM'),
  ('CC(C)(C)C1CCC(NC(=O)c2n[nH]cc2NC(=O)c2ccc(Cl)cc2)CC1 (stereo not given)', 'IC50', '< 750 µM'),
  ('O=C(Nc1c[nH]nc1C(=O)NC1CCNCC1)c1ccccc1OC(F)(F)F', 'IC50', '< 20 µM'),
  ('C[N+]1([O-])CCC(NC(=O)c2n[nH]cc2NC(=O)c2c(F)cccc2F)CC1 (stereo not given)', 'IC50', '< 20 µM'),
  ('O=C(N[C@H]1CC[C@H](O)CC1)c1n[nH]cc1NC(=O)c1c(F)cccc1F', 'IC50', '< 20 µM'),
  ('O=C(Nc1c[nH]nc1C(=O)NC1CCNCC1)c1ccc(Cl)cc1', 'IC50', '< 20 µM');
